Reference source for all entries: PubChem BioAssay AID1751

- tested-system: Pyruvate kinase PKM (Homo sapiens) (UniProt P14618)
- Sequence (P14618 whole entry, looked up, canonical isoform): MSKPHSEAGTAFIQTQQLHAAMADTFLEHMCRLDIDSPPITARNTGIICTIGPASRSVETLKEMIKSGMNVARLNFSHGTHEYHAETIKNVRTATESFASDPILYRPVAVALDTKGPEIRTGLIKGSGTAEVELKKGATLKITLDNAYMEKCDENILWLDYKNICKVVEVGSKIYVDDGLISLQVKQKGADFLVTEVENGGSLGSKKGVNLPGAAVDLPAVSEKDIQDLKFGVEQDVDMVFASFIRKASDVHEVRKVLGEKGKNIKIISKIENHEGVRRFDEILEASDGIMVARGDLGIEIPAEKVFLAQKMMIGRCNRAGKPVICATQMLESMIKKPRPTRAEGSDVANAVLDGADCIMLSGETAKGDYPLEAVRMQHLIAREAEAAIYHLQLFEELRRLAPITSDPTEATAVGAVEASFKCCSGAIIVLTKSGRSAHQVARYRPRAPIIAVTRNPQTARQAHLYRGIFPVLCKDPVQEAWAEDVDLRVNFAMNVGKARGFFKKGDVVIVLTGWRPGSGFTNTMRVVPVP
- measurement-protocol: Confirmation Concentration-Response Assay for Activators of Human Muscle isoform 2 Pyruvate Kinase
- reported-conditions: purified hPK-M2, Kinase-Glo ATP luminescence, 1 h; series mostly up to 57.5 µM
Records with an inconclusive call do not appear. The source made the active and inactive calls. Calls come from the whole dose curve; as a rule, active = well fitted activation curve with a large enough effect; inconclusive = small, poorly fitted or top-dose-only effect; inactive = no such curve, though single readings can be large or run the other way.
assay-readout: Potency

Past entries and their recorded results:
- query-smiles: "O=C1C(=C2SCCCS2)CC/C1=C\\c1ccc(F)cc1"
  tested-system: "Pyruvate kinase PKM (Homo sapiens) (UniProt P14618)"
  assay-readout: "Potency"
  measured-result: "inactive"
- query-smiles: "O=S(=O)(c1ccc2c(c1)OCCO2)N1CCN(S(=O)(=O)c2c(F)ccc(O)c2F)CC1"
  tested-system: "Pyruvate kinase PKM (Homo sapiens) (UniProt P14618)"
  assay-readout: "Potency"
  measured-result: "31.8 nM (active)"
- query-smiles: "O=C1CN(S(=O)(=O)c2ccc3c(c2)OCCO3)CCN1S(=O)(=O)c1c(F)cccc1F"
  tested-system: "Pyruvate kinase PKM (Homo sapiens) (UniProt P14618)"
  assay-readout: "Potency"
  measured-result: "2250 nM (active)"
- query-smiles: "O=S(=O)(NCC1CN(S(=O)(=O)c2c(F)cccc2F)C1)c1ccc2c(c1)OCCO2"
  tested-system: "Pyruvate kinase PKM (Homo sapiens) (UniProt P14618)"
  assay-readout: "Potency"
  measured-result: "2530 nM (active)"
- query-smiles: "Cn1c2cc(C=O)sc2c2cnn(Cc3ccccc3F)c(=O)c21"
  tested-system: "Pyruvate kinase PKM (Homo sapiens) (UniProt P14618)"
  assay-readout: "Potency"
  measured-result: "7.1 nM (active)"
- query-smiles: "Cc1cc2c(s1)c1cnn(Cc3ccc(C(F)(F)F)cc3)c(=O)c1n2C"
  tested-system: "Pyruvate kinase PKM (Homo sapiens) (UniProt P14618)"
  assay-readout: "Potency"
  measured-result: "318 nM (active)"

Request: Quote Potency reported for CCCc1noc(-c2ccc(-c3ccccc3)cc2)n1 please.
Result: inactive

Request: Quote Potency reported for CCCc1cc(F)c(S(=O)(=O)N2CCN(S(=O)(=O)c3ccc4c(c3)OCCO4)CC2)cc1F please.
Result: 800 nM (active)

Request: Quote Potency reported for O=S(=O)(NCCCCCCNS(=O)(=O)c1c(F)cccc1F)c1ccc2c(c1)OCCO2 please.
Result: 4010 nM (active)

====

- tested-system: Pyruvate kinase PKM (Homo sapiens) (UniProt P14618)
- measurement-protocol: Confirmation Concentration-Response Assay for Activators of Human Muscle isoform 2 Pyruvate Kinase
- reported-conditions: purified hPK-M2, Kinase-Glo ATP luminescence, 1 h; series mostly up to 57.5 µM
Results filed as inconclusive are left out. Active and inactive are the calls of the source. Calls come from the whole dose curve; as a rule, active = well fitted activation curve with a large enough effect; inconclusive = small, poorly fitted or top-dose-only effect; inactive = no such curve, though single readings can be large or run the other way.
assay-readout: Potency

- compound: "Cc1cc2c(s1)c1cnn(Cc3ccccc3F)c(=O)c1n2C(C)C"
  Potency: "inactive"
- compound: "O=S(=O)(c1ccc2c(c1)OCCO2)N1CCCN(S(=O)(=O)c2c(F)cccc2F)CC1"
  Potency: "566 nM (active)"
- compound: "Cc1ccc(-c2nnc3ccc(SC(C)C(=O)O)nn23)cc1 (stereo unspecified)"
  Potency: "inactive"
- compound: "O=S(=O)(c1ccc(F)cc1)N1CCN(S(=O)(=O)c2ccc3c(c2)OCCO3)CC1"
  Potency: "56.6 nM (active)"
- compound: "Cc1cc2c(s1)c1cnn(Cc3ccc(Cl)cc3)c(=O)c1n2C"
  Potency: "201 nM (active)"

// next entry
Request: Quote Potency reported for Cc1cc2c(s1)c1cnn(Cc3cccc(F)c3)c(=O)c1n2C please.
Result: 101 nM (active)
